assayed system: PD-1/PD-L1 interaction (PD-1-Ig / PD-L1-His) (Homo sapiens (Human), UniProt Q9NZQ7)
Sequence (Q9NZQ7 other isoform, or with tags, fused parts or gaps): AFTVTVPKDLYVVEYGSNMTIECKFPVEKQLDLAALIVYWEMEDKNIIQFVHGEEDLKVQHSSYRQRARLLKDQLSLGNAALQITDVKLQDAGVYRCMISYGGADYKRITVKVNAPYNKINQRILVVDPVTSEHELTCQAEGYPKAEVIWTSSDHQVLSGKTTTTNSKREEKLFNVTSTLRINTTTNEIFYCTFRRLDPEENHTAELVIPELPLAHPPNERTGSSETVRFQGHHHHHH
procedure text: PD-1/PD-L1 Homogenous Time-Resolved Fluorescence (HTRF) binding assay
conditions used: PD-1/PD-L1 HTRF binding assay; value given as range class; read-out: Range or IC50
From the text: The ability of the compounds of formula (I) to bind to PD-L1 was investigated using a PD-1/PD-L1 Homogenous Time-Resolved Fluorescence (HTRF) binding assay. Homogenous Time-Resolved Fluorescence (HTRF) Binding Assay. The interaction of PD-1 and PD-L1 can be assessed using soluble, purified preparations of the extracellular domains of the two proteins. […]
pIC50: −log10 of the molar value.
experimental endpoint: pIC50

Record excerpt, results attached:
{"columns": ["compound", "experimental endpoint", "result"],
 "data": [
  ["Cc1c(COc2cc(OCc3cccc(C#N)c3)c(CNC(CN(C)C)C(=O)O)cc2Cl)cccc1-c1ccc2c(c1)OCCO2 (stereo not shown)", "pIC50", "8.00 to 9.22"],
  ["COc1cc(OCc2cccc(-c3ccc4c(c3)OCCO4)c2C)cc(OCc2cccc(C#N)c2)c1CN[C@@H](CO)C(=O)O", "pIC50", "8.00 to 9.22"],
  ["Cc1c(COc2ccc(CNC[C@@H](O)CC(=O)O)c(OCc3cccc(C#N)c3)c2Cl)cccc1-c1ccccc1", "pIC50", "4.70 to 7.00"]
]}

Please examine the following record next.
Record lookup: for PD-1/PD-L1 interaction (PD-1-Ig / PD-L1-His) (Homo sapiens (Human), UniProt Q9NZQ7), what pIC50 belongs to CC(=O)NCCNCc1ccc(OCc2cccc(-c3ccccc3)c2C)cc1OCc1cc(C)cc(C)c1 ?
4.70 to 7.00
